# System: NCI-H2170
# assay_notes: relative viability (nuclei count vs DMSO), 5 days (fraction); higher = more cells survive
# condition_set: first compound 0.1265 µM
Just a reminder that ties go to Not met: only relative viability strictly below 0.7 counts as Met.

Worked examples, 6 compounds total:
compound	discrete_label
COc1cc(N2CCC(C(N)=O)CC2)ccc1Nc1nc(N)c(Cl)c(Nc2ccccc2S(=O)(=O)C(C)C)n1 [HG-5-88-01] + C[C@@H](Oc1cc(-c2cnn(C3CCNCC3)c2)cnc1N)c1c(Cl)ccc(F)c1Cl [Crizotinib] (partner 1 µM)	Not met
COc1cc(N2CCC(C(N)=O)CC2)ccc1Nc1nc(N)c(Cl)c(Nc2ccccc2S(=O)(=O)C(C)C)n1 [HG-5-88-01] + N=C(N)NC(=N)NCCc1ccccc1 [Phenformin] (partner 250 µM)	Met
COc1cc(N2CCC(C(N)=O)CC2)ccc1Nc1nc(N)c(Cl)c(Nc2ccccc2S(=O)(=O)C(C)C)n1 [HG-5-88-01] + CC1(C)CCC(c2ccc(Cl)cc2)=C(CN2CCN(c3ccc(C(=O)NS(=O)(=O)c4ccc(N[C@H](CCN5CCOCC5)CSc5ccccc5)c(S(=O)(=O)C(F)(F)F)c4)cc3)CC2)C1 [Navitoclax] (partner 0.5 µM)	Met
COc1cc(N2CCC(C(N)=O)CC2)ccc1Nc1nc(N)c(Cl)c(Nc2ccccc2S(=O)(=O)C(C)C)n1 [HG-5-88-01] + O=C(CCCCCCC(=O)Nc1ccccc1)NO [Vorinostat] (partner 1 µM)	Not met
COc1cc(N2CCC(C(N)=O)CC2)ccc1Nc1nc(N)c(Cl)c(Nc2ccccc2S(=O)(=O)C(C)C)n1 [HG-5-88-01] + NC(=O)Nc1cc(-c2cccc(F)c2)sc1C(=O)N[C@H]1CCCNC1 [AZD7762] (partner 0.2 µM)	Not met
Clc1ccc(Nc2nnc(Cc3ccncc3)c3ccccc23)cc1 [Vatalanib] + C[C@@H](Oc1cc(-c2cnn(C3CCNCC3)c2)cnc1N)c1c(Cl)ccc(F)c1Cl [Crizotinib] (partner 1 µM)	Not met

Challenge: Is relative viability of COc1cc(N2CCC(C(N)=O)CC2)ccc1Nc1nc(N)c(Cl)c(Nc2ccccc2S(=O)(=O)C(C)C)n1 [HG-5-88-01] + Nc1nc2[nH]cc(CCc3ccc(C(=O)N[C@@H](CCC(=O)O)C(=O)O)cc3)c2c(=O)[nH]1 [Pemetrexed] (partner 0.2 µM) strictly below 0.7?
Response given: Met

FYI, the data here is from the supplement of paper PMC10307832.
